Species: Homo sapiens
Test: Inhibition of alpha-chymotrypsin (unknown origin) using N-succinyl-L-phenylalanine-p-nitroanilide as substrate at 500 uM preincubated for 25 mins by microplate reader method
inhibition overview

A selection of reference data follows.
Compound: COc1ccc(-c2nc3ccc(Cl)cc3[nH]2)cc1OC
Quantity name: inhibition
Val: > 50%

Compound: N#Cc1ccc(-c2nc3cc(Cl)ccc3[nH]2)cc1
Quantity name: inhibition
Val: < 50%

Compound: CN(C)c1ccc(-c2nc3ccc(Cl)cc3[nH]2)cc1
Quantity name: inhibition
Val: > 50%

Read the next record carefully.
Could you please provide reported inhibition for Clc1ccc2nc(-c3cccc4ccccc34)[nH]c2c1 ? Thanks!
> 50%
